target: natural β-amyloid peptide β-AP1-40 (human); assay: cell-based or functional assay
Sequence (peptide, as listed by the source): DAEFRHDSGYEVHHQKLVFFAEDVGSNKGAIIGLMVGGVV
Ends that are not written are not given here. * marks the point of attachment. Cholyl = C[C@H](CCC(=O)*)[C@H]1CC[C@H]2[C@@H]3[C@H](O)C[C@@H]4C[C@H](O)CC[C@]4(C)[C@H]3C[C@H](O)[C@]12C; iminobiotinyl = N=C1N[C@H]2[C@H](CS[C@H]2CCCCC(=O)*)N1; FICO = 5-(and 6-)-carboxyfluoresceinyl; NANA = N-acetyl neuraminyl
recorded.metric: Fold Increase in Lag Time; nucleation assay; 100 mole %

// solved cases for Fold Increase in Lag Time; nucleation assay; 100 mole % follow
[
  {
    "binder": "iminobiotinyl-AEDVGSNKGAIIGLM [iminobiotinyl-Aβ21-35]",
    "assay.value": "~1 fold"
  },
  {
    "binder": "Cholyl-KLVFFAEDVGSNKGA [cholyl-Aβ16-30]",
    "assay.value": "> 4.5 fold"
  },
  {
    "binder": "Cholyl-SNKGAIIGLMVGGVV [cholyl-Aβ26-40]",
    "assay.value": "> 4.5 fold"
  },
  {
    "binder": "Cholyl-HDSGYEVHHQKLVFF [cholyl-Aβ6-20]",
    "assay.value": "> 4.5 fold"
  },
  {
    "binder": "iminobiotinyl-HDSGYEVHHQKLVFF [iminobiotinyl-Aβ6-20]",
    "assay.value": "1.6 fold"
  }
]

Lookup: Which Fold Increase in Lag Time; nucleation assay; 100 mole % is listed for {NANA}-KLVFFAEDVGSNKGA [NANA-Aβ16-30] ?
Found: ~1 fold

Lookup: What about {NANA}-DAEFRHDSGYEVHHQ [NANA-Aβ1-15] ?
Found: ~1 fold

Lookup: Subsequent entry: {FICO}-DAEFRHDSGYEVHHQ [FICO-Aβ1-15]
Found: ~1 fold

Data origin: patent US7658917
